Source of measurements: paper PMC6139576

Biological target: human EAAT3 (hEAAT3) (Homo sapiens)
Sequence (P43005 whole entry, the tested form may be a part): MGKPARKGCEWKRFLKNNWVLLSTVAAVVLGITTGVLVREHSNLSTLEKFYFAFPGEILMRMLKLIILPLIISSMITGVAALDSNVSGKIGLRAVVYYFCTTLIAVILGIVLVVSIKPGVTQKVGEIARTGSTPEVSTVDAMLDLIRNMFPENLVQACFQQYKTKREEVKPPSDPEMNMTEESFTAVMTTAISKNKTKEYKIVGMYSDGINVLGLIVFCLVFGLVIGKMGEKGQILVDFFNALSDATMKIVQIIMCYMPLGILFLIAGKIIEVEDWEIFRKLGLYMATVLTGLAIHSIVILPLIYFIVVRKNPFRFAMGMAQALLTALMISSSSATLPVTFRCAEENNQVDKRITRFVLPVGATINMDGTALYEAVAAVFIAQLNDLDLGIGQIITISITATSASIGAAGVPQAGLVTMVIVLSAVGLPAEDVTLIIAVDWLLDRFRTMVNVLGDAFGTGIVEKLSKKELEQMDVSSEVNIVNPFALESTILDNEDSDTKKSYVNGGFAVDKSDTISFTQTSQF
Experiment: [3H]-D-Asp uptake assay, hEAAT3-HEK293 cells
Settings: hEAAT3 pIC50 ± S.E.M.
Reported values of IC50 for individual entries

C#CCO[C@H](C(=O)O)[C@@H](N)C(=O)O (racemic) [DL-erythro-19c] : 28.2 µM

From here, focus on the item given below.
# IC50 lookup, item N[C@H](C(=O)O)[C@H](OCC1CC1)C(=O)O (racemic) [DL-threo-19a] 3.72 µM

---

Target: human EAAT2 (hEAAT2) (Homo sapiens)
Experiment: [3H]-D-Asp uptake assay, hEAAT2-HEK293 cells
Details: hEAAT2 IC50, [3H]-D-Asp uptake, HEK293 cells
measuredEndpoint: pIC50
# reply with the number alone; pIC50 is -log10 of concentration in mol/L

What measured pIC50 goes with C#CCO[C@H](C(=O)O)[C@@H](N)C(=O)O (racemic) [DL-erythro-19c] ? 4.09
